# tested-target: Fab^S (Herceptin Fab scaffold variant with Lc E123S; Lc aa 123-127 SQLKS)
# protocol-summary: SPR
value-kind: Kd

**Query** # input binder: Protein GA1 (designed binder, also called pGA1; PGA1) TPAVTTYKLVINGRTLSGYTTTTAVDAATAEKVFKQYAYVHEVDGEWTYDDATKTFTVTEKPEKL ; wanted: its Kd
**Result** ~50 nM
